- Assay name: soluble on expression in E. coli; label from the status in PepcDB or PDB records
Property label: soluble on expression in E. coli

Below: 6 sequences and their reported soluble on expression in E. coli.
{"columns": ["Query sequence", "Property label", "Value measured"],
 "data": [
  ["MGLERFNGVRVDDAERALLTCCRSLRWARRVADHRPYPDLDALLAAADEAAYDLAPADLAEALAGESLTLLPDDAYSVAHTALSAAHAAYESRFGHVFVICLDNAPPGEALDQVLAGIRSRLTNDREEERVLAAEELRRLARGRLARLVRDFSPRPALQRTPLEHHHHHH", "soluble on expression in E. coli", "not soluble"],
  ["MAEAGIAHTALPLEAIPEKSAGKGEGLTLIIYMLELALHAIPENLKKTVYSKVELMAPRSDGVLLFYGLCGNVLGKIEEDFRALDCRVSILKEENGEIVDDCIGAVLGGRGHYLEALKSCRGAGTFFLTPMWAVNWREMIRTAGLSRNPDDIEMSKFVFDYAGYKRVARVNTGLAYEKDFDARVKEFSTLFEFEVTDLEGTLQLVENCYAKTKASMLEACPHSQTLEHHHHHH", "soluble on expression in E. coli", "not soluble"],
  ["MILQRLFRFSSVIRSAVSVHLRRNIGVTAVAFNKELDPIQKLFVDKIREYKSKRQTSGGPVDASSEYQQELERELFKLKQMFGNADMNTFPTFKFEDPKFEVIEKPQALEHHHHHH", "soluble on expression in E. coli", "not soluble"],
  ["MSLFLNRLSLPKDYFIDTFLYYSDQDIAQISSYLPESNVSANVPGFKKNFVLKVFDHKIKPGETLSHVAARYQITSETLISFNEIKDVRNIKPNSVIKVPNMKGIVYIVKKNDSISSIASAYNVPKVDILDSNNLDNEVLFLGQKLFIPGGRLPKDFLKEVLGETFIYPVQGVITSGYGYRPDPFTGVISFHNGIDIANLANTPIKASREGVVVTAGFNAGGYGKYIVISHSNGFQTLYAHLNSFAVKVGKKVSRGAVIGYMGSTGYSTGNHLHFTIFKNGKTENPMKYEGHHHHHH", "soluble on expression in E. coli", "not soluble"],
  ["VSQLFEEKAKAVNELPTKPSTDELLELYALYKQATVGDNDKEKPGIFNMKDRYKWEAWENLKGKSQEDAEKEYIALVDQLIAKYSS", "soluble on expression in E. coli", "soluble"],
  ["MMKGSRRTGNNTATTLNTPVVIHATQLPQHVSTDEVLQFLESFIDEKENIIDIDTNLSSSISQLKRIQRDFKGLPPAQDFSAAPIQV", "soluble on expression in E. coli", "soluble"]
]}

Read the next record carefully.
query: # lookup: soluble on expression in E. coli of MSLSTFPTALAVAVSVPSSLTPQDFSWRKFKLKRNVKISRNFEFAISCSGDRAASIGFDVPFPKDYTELLQQVFILFAFSPLKIGGWGSRNRGGITREIKAKEATELALKDNRQLMEIEFPTAGLGSVPGDGEGGIEMTGSIQLIREFCDLLVIPEKATKTRIFFPEANEVKFARQSIFGGASFKLDYLTKPSFFEDFGFTEKVKMADRVKPEDELFIVAYPYFNVNEMLVVEELYQAAVLNTSRKLIIFNGELDRIRSDYPPFFYPKLAALSKTLFPKMETVYYIHNFKGRNGGVLFRCYPGPWKVFRRVGSTNICLHQQESMPSLKEVALDILPSAEGHHHHHH
result: not soluble
